Hey, just so you know, these numbers are from paper PMC12775819.

- ASSAY COMMENT: in vivo
- TEST CONDITIONS: male, BALB/c nu/nu, mouse, iv, 500 pmol, total radioactivity, SUV tumor
Non-standard residues stand in square brackets, D forms with d. Residues, ends and D or L forms follow the SMILES beside them. *: point of attachment. DOTA = O=C(O)CN1CCN(CC(=O)O)CCN(CC(=O)*)CCN(CC(=O)O)CC1; EuK = O=C(O)CC[C@H](NC(=O)N[C@@H](CCCCN*)C(=O)O)C(=O)O; 2Nal = N[C@@H](Cc1ccc2ccccc2c1)C(=O)O; Trx = NC[C@H]1CC[C@H](C(=O)O)CC1
Each entry below lists one item and its recorded SUV at 2 h value.
Respond numerically; units are SUV and should not be typed.

Some solved cases for reference:
MOLECULE	UNITS	SUV at 2 h
O=C(O)CC[C@H](NC(=O)N[C@@H](CCCCNC(=O)[C@H](CCC(=O)O)NC(=O)[C@H](CCC(=O)O)NC(=O)[C@H](CCC(=O)O)NC(=O)[C@H](Cc1ccc2ccccc2c1)NC(=O)[C@H]1CC[C@H](CNC(=O)CN2CCN(CC(=O)O)CCN(CC(=O)O)CCN(CC(=O)O)CC2)CC1)C(=O)O)C(=O)O [PS6, EuK-E3-NaI-ChX-DOTA] ({DOTA-Trx}-[2Nal]EEE-EuK)	SUV	0.85
O=C(O)CC[C@H](NC(=O)N[C@@H](CCCCNC(=O)[C@H](Cc1ccc2ccccc2c1)NC(=O)[C@H]1CC[C@H](CNC(=O)[C@H](Cc2c[nH]cn2)NC(=O)[C@H](Cc2c[nH]cn2)NC(=O)[C@H](Cc2c[nH]cn2)NC(=O)CN2CCN(CC(=O)O)CCN(CC(=O)O)CCN(CC(=O)O)CC2)CC1)C(=O)O)C(=O)O [PS11, EuK-NaI-ChX-H3-DOTA] ({DOTA}-HHH[Trx][2Nal]-EuK)	SUV	0.88
O=C(O)CC[C@H](NC(=O)N[C@@H](CCCCNC(=O)[C@H](Cc1c[nH]cn1)NC(=O)[C@H](Cc1c[nH]cn1)NC(=O)[C@H](Cc1c[nH]cn1)NC(=O)[C@H](Cc1ccc2ccccc2c1)NC(=O)[C@H]1CC[C@H](CNC(=O)CN2CCN(CC(=O)O)CCN(CC(=O)O)CCN(CC(=O)O)CC2)CC1)C(=O)O)C(=O)O [PS9, EuK-H3-NaI-ChX-DOTA] ({DOTA-Trx}-[2Nal]HHH-EuK)	SUV	0.12
O=C(O)CC[C@H](NC(=O)N[C@@H](CCCCNC(=O)[C@H](Cc1ccc2ccccc2c1)NC(=O)[C@H]1CC[C@H](CNC(=O)[C@H](CCC(=O)O)NC(=O)[C@H](CCC(=O)O)NC(=O)[C@H](CCC(=O)O)NC(=O)CN2CCN(CC(=O)O)CCN(CC(=O)O)CCN(CC(=O)O)CC2)CC1)C(=O)O)C(=O)O [PS8, EuK-NaI-ChX-E3-DOTA] ({DOTA}-EEE[Trx][2Nal]-EuK)	SUV	0.86
O=C(O)CC[C@H](NC(=O)N[C@@H](CCCCNC(=O)[C@H](Cc1ccc2ccccc2c1)NC(=O)[C@H](Cc1c[nH]cn1)NC(=O)[C@H](Cc1c[nH]cn1)NC(=O)[C@H](Cc1c[nH]cn1)NC(=O)[C@H]1CC[C@H](CNC(=O)CN2CCN(CC(=O)O)CCN(CC(=O)O)CCN(CC(=O)O)CC2)CC1)C(=O)O)C(=O)O [PS10, EuK-NaI-H3-ChX-DOTA] ({DOTA-Trx}-HHH[2Nal]-EuK)	SUV	0.37

Now consider a different molecule.
Enquiry: Entry O=C(O)CC[C@H](NC(=O)N[C@@H](CCCCNC(=O)[C@H](Cc1c[nH]cn1)NC(=O)[C@H](CCC(=O)O)NC(=O)[C@H](Cc1c[nH]cn1)NC(=O)[C@H](CCC(=O)O)NC(=O)[C@H](Cc1c[nH]cn1)NC(=O)[C@H](CCC(=O)O)NC(=O)[C@H](Cc1ccc2ccccc2c1)NC(=O)[C@H]1CC[C@H](CNC(=O)CN2CCN(CC(=O)O)CCN(CC(=O)O)CCN(CC(=O)O)CC2)CC1)C(=O)O)C(=O)O [PS1, EuK-(HE)3-NaI-ChX-DOTA] ({DOTA-Trx}-[2Nal]EHEHEH-EuK) has what SUV at 2 h?
Return: 0.3

====

- ASSAY COMMENT: in vivo
- TEST CONDITIONS: male, BALB/c nu/nu, mouse, iv, 500 pmol, total radioactivity
Non-standard residues stand in square brackets, D forms with d. Residues, ends and D or L forms follow the SMILES beside them. *: point of attachment. DOTA = O=C(O)CN1CCN(CC(=O)O)CCN(CC(=O)*)CCN(CC(=O)O)CC1; EuK = O=C(O)CC[C@H](NC(=O)N[C@@H](CCCCN*)C(=O)O)C(=O)O; 2Nal = N[C@@H](Cc1ccc2ccccc2c1)C(=O)O; Trx = NC[C@H]1CC[C@H](C(=O)O)CC1
READOUT KIND: tissue to tissue ratio at 1 h
Keep the answer to the number alone.

// below: answered compounds
COMPOUND	tissue to tissue ratio at 1 h
O=C(O)CC[C@H](NC(=O)N[C@@H](CCCCNC(=O)[C@H](Cc1ccc2ccccc2c1)NC(=O)[C@H]1CC[C@H](CNC(=O)[C@H](CCC(=O)O)NC(=O)[C@H](CCC(=O)O)NC(=O)[C@H](CCC(=O)O)NC(=O)CN2CCN(CC(=O)O)CCN(CC(=O)O)CCN(CC(=O)O)CC2)CC1)C(=O)O)C(=O)O [[^68Ga]Ga-PS8, metal not drawn] ({DOTA}-EEE[Trx][2Nal]-EuK)	16.2
O=C(O)CC[C@H](NC(=O)N[C@@H](CCCCNC(=O)[C@H](CCC(=O)O)NC(=O)[C@H](CCC(=O)O)NC(=O)[C@H](CCC(=O)O)NC(=O)[C@H](Cc1ccc2ccccc2c1)NC(=O)[C@H]1CC[C@H](CNC(=O)CN2CCN(CC(=O)O)CCN(CC(=O)O)CCN(CC(=O)O)CC2)CC1)C(=O)O)C(=O)O [[^68Ga]Ga-PS6, metal not drawn] ({DOTA-Trx}-[2Nal]EEE-EuK)	0.44

Enquiry: What tissue to tissue ratio at 1 h value was documented for this compound, O=C(O)CC[C@H](NC(=O)N[C@@H](CCCCNC(=O)[C@H](Cc1ccc2ccccc2c1)NC(=O)[C@H]1CC[C@H](CNC(=O)[C@H](Cc2c[nH]cn2)NC(=O)[C@H](Cc2c[nH]cn2)NC(=O)[C@H](Cc2c[nH]cn2)NC(=O)CN2CCN(CC(=O)O)CCN(CC(=O)O)CCN(CC(=O)O)CC2)CC1)C(=O)O)C(=O)O [[^68Ga]Ga-PS11, metal not drawn] ({DOTA}-HHH[Trx][2Nal]-EuK) ?
Return: 0.66

====

- ASSAY COMMENT: in vivo
- TEST CONDITIONS: male, BALB/c nu/nu, mouse, iv, 500 pmol, total radioactivity
Non-standard residues stand in square brackets, D forms with d. Residues, ends and D or L forms follow the SMILES beside them. *: point of attachment. DOTA = O=C(O)CN1CCN(CC(=O)O)CCN(CC(=O)*)CCN(CC(=O)O)CC1; EuK = O=C(O)CC[C@H](NC(=O)N[C@@H](CCCCN*)C(=O)O)C(=O)O; 2Nal = N[C@@H](Cc1ccc2ccccc2c1)C(=O)O; Trx = NC[C@H]1CC[C@H](C(=O)O)CC1
READOUT KIND: tissue to tissue ratio at 1 h
Field format: numeric only.

Enquiry: Look at this molecule and give its reported tissue to tissue ratio at 1 h. O=C(O)CC[C@H](NC(=O)N[C@@H](CCCCNC(=O)[C@H](Cc1ccc2ccccc2c1)NC(=O)[C@H]1CC[C@H](CNC(=O)[C@H](Cc2c[nH]cn2)NC(=O)[C@H](Cc2c[nH]cn2)NC(=O)[C@H](Cc2c[nH]cn2)NC(=O)CN2CCN(CC(=O)O)CCN(CC(=O)O)CCN(CC(=O)O)CC2)CC1)C(=O)O)C(=O)O [[^68Ga]Ga-PS11, metal not drawn] ({DOTA}-HHH[Trx][2Nal]-EuK)
Return: 0.633

====

- ASSAY COMMENT: in vivo
- TEST CONDITIONS: male, BALB/c nu/nu, mouse, iv, 500 pmol, total radioactivity, SUV muscle
Non-standard residues stand in square brackets, D forms with d. Residues, ends and D or L forms follow the SMILES beside them. *: point of attachment. DOTA = O=C(O)CN1CCN(CC(=O)O)CCN(CC(=O)*)CCN(CC(=O)O)CC1; EuK = O=C(O)CC[C@H](NC(=O)N[C@@H](CCCCN*)C(=O)O)C(=O)O; 2Nal = N[C@@H](Cc1ccc2ccccc2c1)C(=O)O; Trx = NC[C@H]1CC[C@H](C(=O)O)CC1
# SUV at 1 h per record follows
Respond numerically; units are SUV and should not be typed.

// solved cases for SUV at 1 h follow
MOLECULE	UNITS	SUV at 1 h
O=C(O)CC[C@H](NC(=O)N[C@@H](CCCCNC(=O)[C@H](Cc1c[nH]cn1)NC(=O)[C@H](CCC(=O)O)NC(=O)[C@H](Cc1c[nH]cn1)NC(=O)[C@H](CCC(=O)O)NC(=O)[C@H](Cc1c[nH]cn1)NC(=O)[C@H](CCC(=O)O)NC(=O)[C@H](Cc1ccc2ccccc2c1)NC(=O)[C@H]1CC[C@H](CNC(=O)CN2CCN(CC(=O)O)CCN(CC(=O)O)CCN(CC(=O)O)CC2)CC1)C(=O)O)C(=O)O [PS1, EuK-(HE)3-NaI-ChX-DOTA] ({DOTA-Trx}-[2Nal]EHEHEH-EuK)	SUV	0.09
O=C(O)CC[C@H](NC(=O)N[C@@H](CCCCNC(=O)[C@H](Cc1c[nH]cn1)NC(=O)[C@H](Cc1c[nH]cn1)NC(=O)[C@H](Cc1c[nH]cn1)NC(=O)[C@H](Cc1ccc2ccccc2c1)NC(=O)[C@H]1CC[C@H](CNC(=O)CN2CCN(CC(=O)O)CCN(CC(=O)O)CCN(CC(=O)O)CC2)CC1)C(=O)O)C(=O)O [PS9, EuK-H3-NaI-ChX-DOTA] ({DOTA-Trx}-[2Nal]HHH-EuK)	SUV	0.082
O=C(O)CC[C@H](NC(=O)N[C@@H](CCCCNC(=O)[C@H](Cc1ccc2ccccc2c1)NC(=O)[C@H]1CC[C@H](CNC(=O)[C@H](Cc2c[nH]cn2)NC(=O)[C@H](CCC(=O)O)NC(=O)[C@H](Cc2c[nH]cn2)NC(=O)[C@H](CCC(=O)O)NC(=O)[C@H](Cc2c[nH]cn2)NC(=O)[C@H](CCC(=O)O)NC(=O)[C@H](Cc2c[nH]cn2)NC(=O)[C@H](CCC(=O)O)NC(=O)CN2CCN(CC(=O)O)CCN(CC(=O)O)CCN(CC(=O)O)CC2)CC1)C(=O)O)C(=O)O [PS5, EuK-NaI-ChX-(HE)4-DOTA] ({DOTA}-EHEHEHEH[Trx][2Nal]-EuK)	SUV	0.12
O=C(O)CC[C@H](NC(=O)N[C@@H](CCCCNC(=O)[C@H](CCC(=O)O)NC(=O)[C@H](CCC(=O)O)NC(=O)[C@H](CCC(=O)O)NC(=O)[C@H](Cc1ccc2ccccc2c1)NC(=O)[C@H]1CC[C@H](CNC(=O)CN2CCN(CC(=O)O)CCN(CC(=O)O)CCN(CC(=O)O)CC2)CC1)C(=O)O)C(=O)O [PS6, EuK-E3-NaI-ChX-DOTA] ({DOTA-Trx}-[2Nal]EEE-EuK)	SUV	0.11

Next molecule, please.
Enquiry: Any idea what SUV at 1 h was measured for O=C(O)CC[C@H](NC(=O)N[C@@H](CCCCNC(=O)[C@H](Cc1ccc2ccccc2c1)NC(=O)[C@H](Cc1c[nH]cn1)NC(=O)[C@H](Cc1c[nH]cn1)NC(=O)[C@H](Cc1c[nH]cn1)NC(=O)[C@H]1CC[C@H](CNC(=O)CN2CCN(CC(=O)O)CCN(CC(=O)O)CCN(CC(=O)O)CC2)CC1)C(=O)O)C(=O)O [PS10, EuK-NaI-H3-ChX-DOTA] ({DOTA-Trx}-HHH[2Nal]-EuK) ?
Return: 0.21
